System: CCRF-CEM
test.details: NCI tumour cell line growth inhibition, 48 h
Activity calls are given as the source filed them. Rule as the data show it: active = GI50 up to about 1.1 µM and inactive = higher.
outcome.measure: GI50

Completed entries (count: 3):
1) Cc1[nH]c(=O)nc(S)c1C(=O)NC1C2CCCCC2NC2CCCCC21 (stereo not given) ... 14.8 µM (inactive)
2) CCOC(=O)/C=C/C1=C(Br)[C@@]2(C)CC[C@@H]3c4ccc(O)cc4CC[C@H]3[C@@H]2C1 ... 7.83 µM (inactive)
3) CC1(O)/C(=N/O)CC2CC1C2(C)C (stereo not given) ... > 100 µM (inactive)

input: Fill in GI50 for record CC(=O)OCC(OC(C)=O)C(OC(C)=O)C(OC(C)=O)C(C=NN(C(C)=O)S(=O)(=O)c1ccc(/C=C2\NC(=O)NC2=O)cc1)OC(C)=O (stereo not given)
output: 84.3 µM (inactive)

input: Consider the molecule Cc1nn(C(=O)Cc2ccccc2)c2c1C(c1ccccc1)SC(=N)N2 (stereo not given) . State its measured GI50.
output: > 100 µM (inactive)

* * *

Test system: K562
test.details: NCI tumour cell line growth inhibition, 48 h
Calls of active or inactive are those of the source. No stated cut-off is given here; in the data, active = GI50 up to about 1.1 µM and inactive = higher.
Your reply should match one of these outcome classes. active, inactive

1) CC(NC(=O)C(C)C(=O)Nc1ccc(C(F)(F)F)cc1)C(N)=O (stereo not given) ... inactive
2) C=C1C(=O)OC2CC(C)C3C=CC(=O)C3CC12 (stereo not given) ... inactive
3) Cc1oc2c(cc(O)c3cc(O)ccc32)c2cccc1-2 ... inactive
4) OCCCCCNc1ccnc2cc(Cl)ccc12 ... inactive
5) FC(F)(F)c1ccc2c(c1)nc(Cc1ccccc1)n2C[C@@H]1CCCN2CCCCC12 (stereo not given in full) ... inactive

input: Test call for this molecule, please: `O=c1c(O)c(-c2ccccc2)oc2c(CP(=O)(O)O)cccc12`
output: inactive

input: Would you mind telling me which call this test gave `O=c1[nH]nc(-c2ccccc2)n1/N=C\CC/C=N\n1c(-c2ccccc2)n[nH]c1=O` ?
output: inactive

input: Hi, sorry to bother you, what did the test record for Cc1ccc(Nc2nc(N)nc3c2ncn3C2OC(CO)C(O)C2O)cc1 (stereo not given) ?
output: inactive

input: Test call for this molecule, please: COc1cc2c(c(OC)c1OC)-c1ccc(OC)c(=O)cc1C(NC(=O)CCCCCNc1ccc(N=[N+]=[N-])cc1[N+](=O)[O-])CC2 (stereo not given)
output: active

input: Which result was noted for this molecule in the test: `O=C1N[C@@H]2c3c(Br)sc(Br)c3C(=O)[C@@H]2O1`
output: active

* * *

System: NCI-H23
test.details: NCI tumour cell line growth inhibition, 48 h
The source made the active and inactive calls. Rule as the data show it: active = GI50 up to about 1.1 µM and inactive = higher.
Catalogue of GI50 readings, one per entry.

Here is how some compounds turned out for GI50.
1) COC1(OC)c2no[n+]([O-])c2C(OC)(OC)c2c1no[n+]2[O-] ... 11.4 µM (inactive)
2) CCOc1ccccc1NC(=O)CC(C(=O)OC)C(=O)C(=O)OC (stereo not given) ... > 100 µM (inactive)
3) CC(=O)OC1=C(c2ccccc2)S(=O)(=O)c2ccccc21 ... > 100 µM (inactive)
4) CC(=O)NNc1nc(C)c(C(=O)NNC(=O)C(=O)Nc2nc3ccc([N+](=O)[O-])cc3s2)s1 ... 44.1 µM (inactive)

Please look at the following compound next.
input: Tell me its GI50 given `CCN(CC)CC(C)(C)C(=O)/C=C/c1cccc(/C=C/C(=O)C(C)(C)CN(CC)CC)c1` as the entry.
output: 1.3 µM (inactive)

The reported measurements were obtained from ChEMBL document CHEMBL1201862.
